Reference source: PubChem BioAssay AID1159606

- test-name: inhibitors of TWEAK-Fn14 signaling, primary screen, luciferase reporter cells, uHTS (AID 1159606)
- condition-notes: TWEAK-stimulated Fn14 reporter cells, luciferase luminescence, 8 h; at 10 µM; hits give high values
Screen size: about 360,000 compounds; about 7,300 (2%) were called active. What follows is part of a selection rich in actives, with near analogues and random picks from the rest.
Answer each item with its documented inhibition.
Number in %, nothing else.

The value of inhibition measured for the compound COc1ccc(Cl)cc1NC(=O)COC(=O)C(CC(C)C)N1C(=O)C2CC=CCC2C1=O (stereo not given) turned out to be -4.03

The value of inhibition measured for the compound `O=C(COC(=O)CCc1nc2ccccc2c(=O)[nH]1)Nc1ccc(N2CCOCC2)cc1` turned out to be -0.73

The value of inhibition measured for the compound `Cc1cc(S(=O)(=O)N2CCOCC2)ccc1OCC(=O)Nc1cccc(C(F)(F)F)c1` turned out to be 21.1

The value of inhibition measured for the compound CCCCOC(=O)c1ccc(NC(c2ccc(C)cc2)P(=O)(OC)OC)cc1 (stereo not given) turned out to be 4.7

The value of inhibition measured for the compound `C=CCc1cc(S(=O)(=O)c2ccc(O)c(CC=C)c2)ccc1O` turned out to be 30.9

The value of inhibition measured for the compound `Cc1ccc(-c2nc3ccc(Cl)cn3c2Cc2ccccc2)cc1` turned out to be -22

The value of inhibition measured for the compound `COc1cccc(/C=C(/CC(=O)Nc2ccc(N3CCOCC3)cc2)c2nc3ccccc3s2)c1` turned out to be 62.8

The value of inhibition measured for the compound `COc1ccc([C@H]2CC(=O)C[C@@H](CCn3cc(CC4CCCC4)nn3)O2)cc1` turned out to be 7.34

The value of inhibition measured for the compound CC(C)CN(C(=O)CSc1ncnc2sccc12)C1CCS(=O)(=O)C1 (stereo not given) turned out to be 4.56

The value of inhibition measured for the compound `O=C(O)c1ccc2c(c1)C(=O)N(c1ccc(/C=C/C(=O)c3ccccc3)cc1)C2=O` turned out to be 75.5
